# test-method-notes: In vitro enzymatic digestion model of the digestive tract (pepsin, pancreatin, bile), HPLC
# Format: in vitro ADME
# applied-conditions: Intestinal phase 15 min.; read-out: Degradation (%)
Where no end group is shown, it is not given here.
quantity-measured: metabolised at 0.25 h (%)
Your answer should be a plain number; it is taken to be in %.

Check out these entries, answers already filled in.
Query QGENEEEDSGAIVTVK [Peptide P16f, QGENEEEDSGAIVTVK] yields metabolised at 0.25 h of 100

Query SDNFEY [Peptide P6a, SDNFEY] yields metabolised at 0.25 h of 100

---
Query SVIKPPTD [Peptide P8a, SVIKPPTD] yields metabolised at 0.25 h of 51.2

Query EEDQPRPDHPPQRP [Peptide P14c, EEDQPRPDHPPQRP] yields metabolised at 0.25 h of 92.9

Query QGENEGEDKGAIVT [Peptide P14b, QGENEGEDKGAIVT] yields metabolised at 0.25 h of 36.7

====

# System: C. elegans wild type strain N2
# test-method-notes: C. elegans body fat reduction, Nile Red staining
# Assay type: in vivo, Caenorhabditis elegans
# applied-conditions: synthesized peptides at 1 μg/mL of final concentration
Where no end group is shown, it is not given here.
# reported % Fluorescence Reduction C. elegans; entries follow
Your answer should be a plain number; it is taken to be in %.

Field % Fluorescence Reduction C. elegans (C. elegans wild type strain N2), entry DEDEDEDKPRPSRP (DEDEDEDKPRPSRP; listed as Glycine soja) [Peptide P14d] : 6.26

Field % Fluorescence Reduction C. elegans (C. elegans wild type strain N2), entry EEEGGSVLSG [Peptide P10b, EEEGGSVLSG] : 33.48

Field % Fluorescence Reduction C. elegans (C. elegans wild type strain N2), entry SVIKPPTD [Peptide P8a, SVIKPPTD] : 44.67

---
Field % Fluorescence Reduction C. elegans (C. elegans wild type strain N2), entry GKREQDEDEDEDEDKPRPSRP (GKREQDEDEDEDEDKPRPSRP; listed as Glycine soja) [Peptide P21b] : 24.91

Field % Fluorescence Reduction C. elegans (C. elegans wild type strain N2), entry QGENEGEDKGAIVT [Peptide P14b, QGENEGEDKGAIVT] : 35.30

Field % Fluorescence Reduction C. elegans (C. elegans wild type strain N2), entry DEDEDEDEDKPRPSRP (DEDEDEDEDKPRPSRP; listed as Glycine soja) [Peptide P16e] : 21.86

Field % Fluorescence Reduction C. elegans (C. elegans wild type strain N2), entry EEDQPRPDHPPQRP [Peptide P14c, EEDQPRPDHPPQRP] : 39.37

Field % Fluorescence Reduction C. elegans (C. elegans wild type strain N2), entry QDEDEDEDEDKPRPSRP (QDEDEDEDEDKPRPSRP; listed as Glycine soja) [Peptide P17c] : 18.13

Field % Fluorescence Reduction C. elegans (C. elegans wild type strain N2), entry SDNFEY [Peptide P6a, SDNFEY] : 40.90

Field % Fluorescence Reduction C. elegans (C. elegans wild type strain N2), entry HQQEEENEGGSILSG (HQQEEENEGGSILSG; listed as Glycine soja) [Peptide P15a] : 22.82

Field % Fluorescence Reduction C. elegans (C. elegans wild type strain N2), entry QGENEEEDSGAIVTVK [Peptide P16f, QGENEEEDSGAIVTVK] : 38.95

====

# tgt: PL (pancreatic lipase) (Sus scrofa)
# Sequence (P00591 1-450): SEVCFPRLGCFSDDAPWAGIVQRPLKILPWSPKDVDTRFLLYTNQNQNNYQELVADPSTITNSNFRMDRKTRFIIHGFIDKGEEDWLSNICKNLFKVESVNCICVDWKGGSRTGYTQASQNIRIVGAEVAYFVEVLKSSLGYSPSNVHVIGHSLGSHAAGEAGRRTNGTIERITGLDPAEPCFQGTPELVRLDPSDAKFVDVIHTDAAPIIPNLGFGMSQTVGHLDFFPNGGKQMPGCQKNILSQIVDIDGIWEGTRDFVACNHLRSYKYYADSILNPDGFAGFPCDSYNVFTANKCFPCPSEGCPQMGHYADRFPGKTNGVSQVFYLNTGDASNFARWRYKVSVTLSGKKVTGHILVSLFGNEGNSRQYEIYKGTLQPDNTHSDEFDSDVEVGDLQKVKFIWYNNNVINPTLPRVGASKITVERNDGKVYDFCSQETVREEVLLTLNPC
# test-method-notes: PL inhibition assay with 4-methyl umbelliferyl oleate (4MUO), fluorescence
# Assay type: biochemical
# applied-conditions: synthesized peptides
pIC50: −log10 of the molar value. Where no end group is shown, it is not given here.
Rule: rule met for pIC50 not less than 4, rule not met for anything less.

Examples with answers:
Request: Is pIC50 at least 4? Consider SDNFEY [Peptide P6a, SDNFEY]
Response: rule met

Request: Is pIC50 at least 4? Consider QGENEGEDKGAIVT [Peptide P14b, QGENEGEDKGAIVT]
Response: rule not met

Request: Is pIC50 at least 4? Consider EEEGGSVLSG [Peptide P10b, EEEGGSVLSG]
Response: rule met

---
Request: Is pIC50 at least 4? Consider SVIKPPTD [Peptide P8a, SVIKPPTD]
Response: rule met

Request: Is pIC50 at least 4? Consider QGENEEEDSGAIVTVK [Peptide P16f, QGENEEEDSGAIVTVK]
Response: rule not met

Request: Is pIC50 at least 4? Consider EEDQPRPDHPPQRP [Peptide P14c, EEDQPRPDHPPQRP]
Response: rule met

====

# tgt: PLA2 (pancreatic phospholipase A2) (Homo sapiens, UniProt P04054)
# Sequence (P04054 23-148, species assumed): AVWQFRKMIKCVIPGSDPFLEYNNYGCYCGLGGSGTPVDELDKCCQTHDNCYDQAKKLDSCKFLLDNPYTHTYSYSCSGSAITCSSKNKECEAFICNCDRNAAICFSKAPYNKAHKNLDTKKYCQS
# test-method-notes: PLA2 inhibition assay by HPLC with DOPC as substrate
# Format: biochemical
# applied-conditions: peptide 0.35 mg/ml
# Description: Inhibition of PLA2 enzyme was determined by High Performance Liquid Chromatography (HPLC) using 1,2-dioleoyl-sn-glycero-3-phosphocholine (DOPC) as substrate as described by Singh et al. (A rapid isocratic high-performance liquid chromatography method for determination of cholesterol and 1,2-dioleoyl-sn-glycero-3-phosphocholine. Journal of Chromatography (2005); 1073:347-353). […]
Where no end group is shown, it is not given here.
quantity-measured: Percentage of PLA2 inhibition (%)
Your answer should be a plain number; it is taken to be in %.

Query EEDQPRPDHPPQRP [Peptide P14c, EEDQPRPDHPPQRP] yields Percentage of PLA2 inhibition of 21.1

Query SVIKPPTD [Peptide P8a, SVIKPPTD] yields Percentage of PLA2 inhibition of 12.9

Query QGENEGEDKGAIVT [Peptide P14b, QGENEGEDKGAIVT] yields Percentage of PLA2 inhibition of 22.2

Query QGENEEEDSGAIVTVK [Peptide P16f, QGENEEEDSGAIVTVK] yields Percentage of PLA2 inhibition of 13.6

Query SDNFEY [Peptide P6a, SDNFEY] yields Percentage of PLA2 inhibition of 12.1

---
Query EEEGGSVLSG [Peptide P10b, EEEGGSVLSG] yields Percentage of PLA2 inhibition of 13.9

Data provenance is patent US9802990B2.
